- TARGET ENTITY: Recombinant MAPKAPK2 (Homo sapiens)
- Sequence (P49137 whole entry, species assumed): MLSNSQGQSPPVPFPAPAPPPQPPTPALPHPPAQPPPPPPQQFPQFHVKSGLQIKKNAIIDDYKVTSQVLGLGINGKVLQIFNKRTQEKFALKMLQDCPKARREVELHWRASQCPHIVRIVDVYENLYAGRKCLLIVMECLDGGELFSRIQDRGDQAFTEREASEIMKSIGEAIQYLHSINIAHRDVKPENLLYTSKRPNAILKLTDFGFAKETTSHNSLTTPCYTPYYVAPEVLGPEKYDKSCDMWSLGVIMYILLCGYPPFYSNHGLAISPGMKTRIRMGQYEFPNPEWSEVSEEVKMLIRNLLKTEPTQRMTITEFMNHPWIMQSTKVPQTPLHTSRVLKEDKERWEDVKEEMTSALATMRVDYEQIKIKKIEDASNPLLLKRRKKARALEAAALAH
- TEST DESCRIPTION: Determination of MK-2 IC50 (HSP-peptide phosphorylation, anion exchange resin capture assay)
- Format: biochemical
- ASSAY CONDITIONS: MK-2 Avg. IC50, Table 2, tricyclic aminocyanopyridine MK-2 inhibitors
- Protocol: The phosphorylation of HSP-peptide ([…]) by MAPKAPK2 was measured using an anion exchange resin capture assay method. […] A 50 μl aliquot of head volume was removed from the quenched reaction mixture and added to a 96-well plate, 150 μl of Microscint-40 (Packard) was added and the amount of phosphorylated-peptide was determined. […] Compounds are evaluated as potential inhibitors of the MK2 kinase by measuring their effects on MK2 phosphorylation of the peptide substrate. […]
Would you mind telling me the reported IC50 of each entry?
Hi! Could you send only the number? It should be in µM, unit omitted.

Prompt: Look up IC50 for this compound: N#Cc1c(N)nc2c(c1N)Cc1ccc(OCC(=O)O)cc1O2
Completion: 0.916

Prompt: Look up IC50 for this compound: N#Cc1c(N)nc2c(c1N)C(C(C#N)C#N)c1cc(O)ccc1O2 (stereo not drawn)
Completion: 4.22

Prompt: Look up IC50 for this compound: CCOCCNc1c(C#N)c(N)nc2c1Cc1ccc(OCCOCC)cc1O2
Completion: 9.66

Prompt: Look up IC50 for this compound: COc1cccc2c1Oc1nc(N)c(C#N)c(N)c1C2C(C#N)C#N (stereo not drawn)
Completion: 21.2

Prompt: Look up IC50 for this compound: Cc1cc(Cl)cc2c1Oc1nc(N)c(C#N)c(N)c1C2
Completion: 136

Prompt: Look up IC50 for this compound: CCNc1c(C#N)c(N)nc2c1Cc1ccc(OCC)cc1O2
Completion: 4.76

Prompt: Look up IC50 for this compound: COc1ccc(Nc2c(C#N)c(N)nc3c2Cc2cc(OC)c(OC)cc2O3)cc1 [Example 40]
Completion: 6.11

Prompt: Look up IC50 for this compound: COc1ccc2c(c1)Oc1nc(N)c(C#N)c(N)c1C2c1ccccc1F (stereo not drawn)
Completion: 151

Prompt: Look up IC50 for this compound: COc1cccc2c1Oc1nc(N)c(C#N)c(N)c1C2
Completion: 1.37
